- System tested: Mitogen-activated protein kinase 9 (Homo sapiens) (UniProt P45984)
- Sequence (P45984 whole entry, looked up): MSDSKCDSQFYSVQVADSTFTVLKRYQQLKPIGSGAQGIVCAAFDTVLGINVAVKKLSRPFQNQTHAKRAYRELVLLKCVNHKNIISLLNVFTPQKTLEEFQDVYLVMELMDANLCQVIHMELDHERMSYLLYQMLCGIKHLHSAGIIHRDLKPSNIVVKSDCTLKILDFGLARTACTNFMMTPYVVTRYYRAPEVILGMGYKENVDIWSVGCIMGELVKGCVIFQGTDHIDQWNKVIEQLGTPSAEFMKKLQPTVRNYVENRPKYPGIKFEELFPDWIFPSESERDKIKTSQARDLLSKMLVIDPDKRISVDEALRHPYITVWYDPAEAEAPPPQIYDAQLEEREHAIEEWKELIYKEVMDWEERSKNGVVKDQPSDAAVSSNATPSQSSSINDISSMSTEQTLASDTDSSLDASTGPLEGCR
- Run conditions: at 1 µM
- Description: Millipore: Percentage of residual kinase activity of MAPK9 at 1uM relative to control. Control inhibitor: Jnk Inhibitor II at 100.0uM. Buffer: 50 mM Tris pH 7.5, 0.1 mM EGTA, 0.1% ?-mercaptoethanol
Entries and their residual activity values follow.
Report as a plain number; the unit % is understood.

Below, 5 compounds whose answers are already recorded.
O=C(Nc1cccc(Nc2cc(Nc3cccc(C(F)(F)F)c3)ncn2)c1)C1CC1 : 104
NC(=O)c1ccc2[nH]c(-c3ccc(Oc4ccc(Cl)cc4)cc3)nc2c1 : 88
c1ccc(-c2n[nH]cc2-c2ccnc3ccccc23)nc1 : 109
Oc1ccc(Nc2nc(-c3ccc(Cl)cc3)cs2)cc1 : 101
COc1cccc(-c2cc(=O)c3ccccc3o2)c1N : 102

Lab note: measured residual activity of CNc1cc2c(Nc3cccc(Br)c3)ncnc2cn1 was 98

The reported numbers originate from ChEMBL document CHEMBL2218924.
